Below, each of the molecules is paired with its reported melting point value.

Molecule: COC(=O)C1=C(C)NC(C)=C(C(=O)OC)C1c1cc(Br)ccc1OCC(=O)NCCO[N+](=O)[O-]
melting point: 166 to 167 °C
//
Molecule: CCCCN1C2=NCCN2C(c2ccccc2)c2cc(Cl)ccc21 (stereo not drawn)
melting point: 97 to 97.5 °C
//
Molecule: Cc1oc(-c2ccccc2)nc1COc1cccc(CCl)c1
melting point: 79 to 80 °C

----------
Below, each of the compounds is paired with its reported melting point value.

Compound: CC(=O)NCCCn1cc(C2=C(c3cn(C)c4ccccc34)C(=O)NC2=O)c2ccccc21
melting point: 132 to 136 °C
--
Compound: CCCOc1ccc(S(=O)(=O)N2CCN(CC)CC2)cc1-c1nc2cc3ncn(Cc4cccc(OC)c4)c3cc2c(=O)[nH]1
melting point: 117 to 118 °C
--
Compound: OCc1cnc2c(F)c(F)c(F)cc2c1-c1cccs1
melting point: 126 to 128 °C
--
Compound: NC(=O)Nc1ccc2oc([N+](=O)[O-])c(-c3ccccc3)c2c1
melting point: 230 to 232 °C
--
Compound: Cc1nnc(CCl)n1-c1ccc(Cl)cc1C(=O)c1ccccc1Cl
melting point: 127 to 130 °C
